The measured values listed here are drawn from ChEMBL document CHEMBL1649156.

- Test system: Lactobacillus
- assay-remarks: Antimicrobial activity in Lactobacillus by CLSI agar dilution method
- Format: functional
readout-kind: MIC50 (µg/mL)
Give the number; µg/mL is assumed, so skip it.

Reported MIC50 ( C[C@@H](O)[C@H]1C(=O)N2C(C(=O)O)=C(SCCNC=N)C[C@H]12 [IMIPENEM ANHYDROUS] ) = 1

Reported MIC50 ( CCC[C@@H]1C[C@@H](C(=O)N[C@@H]([C@H]2O[C@H](SC)[C@H](O)[C@@H](O)[C@H]2O)[C@H](C)Cl)N(C)C1 ) = 0.5

###

What MIC was measured for each of the following?
- Tested on: Peptoniphilus asaccharolyticus
- assay-remarks: Antimicrobial activity in Peptoniphilus asaccharolyticus by CLSI agar dilution method
- Format: functional
Give the number; µg/mL is assumed, so skip it.

Summary line: CCC[C@@H]1C[C@@H](C(=O)N[C@@H]([C@H]2O[C@H](SC)[C@H](O)[C@@H](O)[C@H]2O)[C@H](C)Cl)N(C)C1 , Peptoniphilus asaccharolyticus, reported MIC = 0.06

Summary line: C[C@@H](O)[C@H]1C(=O)N2C(C(=O)O)=C(S[C@H]3CC[S@@+]([O-])C3)S[C@H]12 , Peptoniphilus asaccharolyticus, reported MIC = 0.03
